Tested on: SK-OV-3 ovarian
TEST_SUMMARY: NCI tumour cell line growth inhibition, 48 h; in the data active = GI50 below about 0.43 µM; inactive = the rest
In this exercise, the only acceptable responses are active, inactive

| COMPOUND | CATEGORY |
| --- | --- |
| COc1ccc(CN2c3ccccc3Sc3ccccc32)c(C(F)(F)F)c1 | inactive |
| COC12C=C/C(=C(/C(=O)OCc3ccccn3)C(=O)CCCCCCCCC3(OC)C=C/C(=C(/C(=O)OCc4ccccn4)C(=O)CCCCCCCC1)O3)O2 | inactive |
| CC1=C2[C@@H](CC1)[C@]1(C)O[C@@](C(C)C)(C[C@H]1OC(=O)CO)[C@H]2OC(=O)C1CC1c1ccccc1 (some centres undefined) | inactive |

Then there is this compound:
Problem: What is the recorded call for this compound in the test? COc1ncc(Nc2ncc([C@@H](C)N3CCN(S(C)(=O)=O)CC3)cc2-c2nc(C)nc(N)n2)cc1F
Result: active
